Each record here notes measured IC50.
# Assay Target: HLA-DRB1*04:01 (Homo sapiens, UniProt P01903+P01911, A100K/A169T/F76Y/I96L/K127E/L162R/M171V/N62H/P40V/Q125Y/R42H/S133A/S149N/S66Y/V115G/V209L/W38E)
# Construct: EBV transformed homozygous cell lines were used as sources of MHC molecules; endogenous in cells; host or cells: EBV transformed homozygous cell lines
# Assay Notes: HLA class II peptide binding, inhibition of radiolabeled peptide binding to purified MHC
# Conditions: citrullinated 15-mer peptide (X = citrulline); purified HLA-DRB1*04:01; read-out: DRB1*04:01 binding capacity, Cit peptide (IC50 nM)
Square brackets hold non-standard residues; d marks the D form. Peptide text beside a SMILES is read from it. Cit = NC(=O)NCCC[C@H](N)C(=O)O
Give the value in nM but do not write nM after it.

# example entries with known answers
compound="CSCC[C@H](NC(=O)[C@@H](NC(=O)CNC(=O)[C@@H]1CCCN1C(=O)[C@H](CCC(N)=O)NC(=O)CNC(=O)[C@H](CCCNC(N)=O)NC(=O)[C@H](C)NC(=O)CNC(=O)[C@H](CCC(N)=O)NC(=O)[C@@H]1CCCN1C(=O)CN)C(C)C)C(=O)NCC(=O)N[C@@H](Cc1ccccc1)C(=O)N1CCC[C@H]1C(=O)O [GPQGAXGQPGVMGFP] (H-GPQGA[Cit]GQPGVMGFP-OH)" measurement_kind=IC50 assay_result=14900
compound="CC[C@H](C)[C@H](NC(=O)CNC(=O)[C@H](C)NC(=O)[C@H](C)NC(=O)CNC(=O)[C@H](CCCNC(N)=O)NC(=O)[C@H](CCC(=O)O)NC(=O)CNC(=O)[C@@H]1CCCN1C(=O)[C@H](CCSC)NC(=O)CNC(=O)[C@H](CCC(N)=O)NC(=O)[C@H](CC(C)C)NC(=O)CNC(=O)[C@@H]1CCCN1)C(=O)O [PGLQGMPGEXGAAGI] (H-PGLQGMPGE[Cit]GAAGI-OH)" measurement_kind=IC50 assay_result=4170

Documented IC50 of `CC(C)C[C@H](NC(=O)[C@H](CC(N)=O)NC(=O)[C@@H](NC(=O)[C@H](CCC(=O)O)NC(=O)[C@H](CCCNC(N)=O)NC(=O)[C@H](CC(C)C)NC(=O)[C@H](CC(N)=O)NC(=O)[C@@H](N)CC(C)C)[C@@H](C)O)C(=O)N[C@@H](CC(=O)O)C(=O)N[C@@H](CO)C(=O)N[C@@H](CC(C)C)C(=O)N1CCC[C@H]1C(=O)N[C@@H](CC(C)C)C(=O)N[C@H](C(=O)N[C@@H](CC(=O)O)C(=O)O)C(C)C` : 4340

---

# Assay Target: HLA-DRB1*01:01 (Homo sapiens, UniProt P01903+P01911, A100R/D57E/F55L/F60I/F76Y/I96L/L162R/M171V/P40L/Q125E/R42F/V115G/Y59C)
# Construct: EBV transformed homozygous cell lines were used as sources of MHC molecules; endogenous in cells; host or cells: EBV transformed homozygous cell lines
# Assay Notes: HLA class II peptide binding, inhibition of radiolabeled peptide binding to purified MHC
# Conditions: value of the wild-type (non-citrullinated) counterpart of the listed peptide; read-out: DRB1*01:01 binding capacity WT peptide (IC50 nM)
Square brackets hold non-standard residues; d marks the D form. Peptide text beside a SMILES is read from it. Cit = NC(=O)NCCC[C@H](N)C(=O)O
Measurement Kind: IC50

compound="CC[C@H](C)[C@H](NC(=O)[C@@H](NC(=O)[C@@H](NC(=O)[C@H](CCCCN)NC(=O)CN)[C@@H](C)O)C(C)C)C(=O)N[C@@H](CCC(=O)O)C(=O)N[C@@H](Cc1ccc(O)cc1)C(=O)N[C@@H](CCCNC(=N)N)C(=O)N[C@@H](CO)C(=O)N[C@@H](CCC(N)=O)C(=O)N[C@@H](CCCCN)C(=O)N[C@H](C(=O)N[C@@H](CO)C(=O)N[C@@H](CCCNC(N)=O)C(=O)N[C@@H](CC(C)C)C(=O)O)[C@@H](C)O [GKTVIEYRSQKTSXL] (H-GKTVIEYRSQKTS[Cit]L-OH)" measurement_kind=IC50 assay_result="29 nM"

Attention now turns to another entry.
Note to self: IC50 recorded for CC[C@H](C)[C@H](NC(=O)[C@H](CC(=O)O)NC(=O)[C@@H](NC(=O)[C@@H](NC(=O)[C@@H]1CCCN1C(=O)[C@H](CC(C)C)NC(=O)[C@H](CCCNC(=N)N)NC(=O)[C@H](CO)NC(=O)[C@@H](NC(=O)[C@H](CCCCN)NC(=O)[C@H](CCC(N)=O)NC(=O)[C@H](CO)NC(=O)[C@H](CCCNC(N)=O)NC(=O)[C@H](Cc1ccc(O)cc1)NC(=O)[C@@H](N)CCC(=O)O)[C@@H](C)O)[C@@H](C)CC)[C@@H](C)CC)C(=O)O [EYXSQKTSRLPIIDI] (H-EY[Cit]SQKTSRLPIIDI-OH) was 14 nM

---

In this section, each of the molecules is paired with its reported log10 IC50.
# Assay Target: HLA-DRB1*04:01 (Homo sapiens, UniProt P01903+P01911, A100K/A169T/F76Y/I96L/K127E/L162R/M171V/N62H/P40V/Q125Y/R42H/S133A/S149N/S66Y/V115G/V209L/W38E)
# Construct: EBV transformed homozygous cell lines were used as sources of MHC molecules; endogenous in cells; host or cells: EBV transformed homozygous cell lines
# Assay Notes: HLA class II peptide binding, inhibition of radiolabeled peptide binding to purified MHC
# Conditions: citrullinated peptide as listed (X at Cit position); read-out: DRB1*04:01 binding capacity Cit peptide (IC50 nM)
Square brackets hold non-standard residues; d marks the D form. Peptide text beside a SMILES is read from it. Cit = NC(=O)NCCC[C@H](N)C(=O)O
Note the log scale: values are log10 of IC50 expressed in nM.

Recorded log10 IC50, per entry:
molecule="CC[C@H](C)[C@H](NC(=O)[C@H](CC(=O)O)NC(=O)[C@H](CCSC)NC(=O)[C@@H]1CCCN1C(=O)[C@H](C)NC(=O)[C@@H](NC(=O)[C@H](CC(=O)O)NC(=O)[C@@H](NC(=O)[C@@H](NC(=O)[C@@H]1CCCN1C(=O)[C@H](CC(C)C)NC(=O)[C@H](CCCNC(N)=O)NC(=O)[C@H](CO)NC(=O)[C@@H](NC(=O)[C@@H](N)CCCCN)[C@@H](C)O)[C@@H](C)CC)[C@@H](C)CC)[C@@H](C)CC)C(=O)O [KTSXLPIIDIAPMDI] (H-KTS[Cit]LPIIDIAPMDI-OH)" measurement_kind="log10 IC50" assay_result=3.85
molecule="CC[C@H](C)[C@H](NC(=O)[C@H](CCC(=O)O)NC(=O)[C@@H](NC(=O)[C@H](CC(=O)O)NC(=O)[C@H](CC(N)=O)NC(=O)[C@@H](N)CO)C(C)C)C(=O)N[C@@H](CCCNC(=N)N)C(=O)N[C@@H](C)C(=O)N[C@@H](CCC(=O)O)C(=O)NCC(=O)N[C@@H](CC(N)=O)C(=O)N[C@@H](CO)C(=O)N[C@@H](CCCNC(N)=O)C(=O)N[C@@H](Cc1ccccc1)C(=O)N[C@H](C(=O)O)[C@@H](C)O [SNDVEIRAEGNSXFT] (H-SNDVEIRAEGNS[Cit]FT-OH)" measurement_kind="log10 IC50" assay_result=2.25
molecule="CSCC[C@H](NC(=O)[C@H](Cc1ccc(O)cc1)NC(=O)[C@H](CCC(N)=O)NC(=O)[C@H](CC(C)C)NC(=O)[C@@H]1CCCN1C(=O)[C@H](CC(=O)O)NC(=O)[C@@H]1CCCN1C(=O)CNC(=O)[C@@H](N)CCCCN)C(=O)N[C@@H](CCCNC(N)=O)C(=O)N[C@@H](C)C(=O)N[C@@H](CC(=O)O)C(=O)N[C@@H](CCC(N)=O)C(=O)N[C@@H](C)C(=O)N[C@@H](C)C(=O)O [KGPDPLQYMXADQAA] (H-KGPDPLQYM[Cit]ADQAA-OH)" measurement_kind="log10 IC50" assay_result=1.65
molecule="CC[C@H](C)[C@H](NC(=O)[C@H](CC(=O)O)NC(=O)[C@@H](NC(=O)[C@@H](NC(=O)[C@@H]1CCCN1C(=O)[C@H](CC(C)C)NC(=O)[C@H](CCCNC(N)=O)NC(=O)[C@H](CO)NC(=O)[C@@H](NC(=O)[C@H](CCCCN)NC(=O)[C@H](CCC(N)=O)NC(=O)[C@H](CO)NC(=O)[C@H](CCCNC(=N)N)NC(=O)[C@H](Cc1ccc(O)cc1)NC(=O)[C@@H](N)CCC(=O)O)[C@@H](C)O)[C@@H](C)CC)[C@@H](C)CC)C(=O)O [EYRSQKTSXLPIIDI] (H-EYRSQKTS[Cit]LPIIDI-OH)" measurement_kind="log10 IC50" assay_result=2.50

Entry CC[C@H](C)[C@H](NC(=O)[C@H](CC(N)=O)NC(=O)[C@H](CCC(N)=O)NC(=O)[C@H](CO)NC(=O)CNC(=O)[C@H](CCC(=O)O)NC(=O)[C@@H](NC(=O)[C@H](CO)NC(=O)[C@H](CC(C)C)NC(=O)[C@H](CC(C)C)NC(=O)[C@H](CCCNC(N)=O)NC(=O)[C@H](CC(C)C)NC(=O)[C@H](Cc1ccccc1)NC(=O)[C@@H](N)[C@@H](C)O)[C@@H](C)O)C(=O)N[C@H](C(=O)O)[C@@H](C)O [TFLXLLSTEGSQNIT] (H-TFL[Cit]LLSTEGSQNIT-OH) , log10 IC50 reported as 1.74
